Target: human PD-L1 (human) (UniProt Q9NZQ7)
Sequence (Q9NZQ7 19-290): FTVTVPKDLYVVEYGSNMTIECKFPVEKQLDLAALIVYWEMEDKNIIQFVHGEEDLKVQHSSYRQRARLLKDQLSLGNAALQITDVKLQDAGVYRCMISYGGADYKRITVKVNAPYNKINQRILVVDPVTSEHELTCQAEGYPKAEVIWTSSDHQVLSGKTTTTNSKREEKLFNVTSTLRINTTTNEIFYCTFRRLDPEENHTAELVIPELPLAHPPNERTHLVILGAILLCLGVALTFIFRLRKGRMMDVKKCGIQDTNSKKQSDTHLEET
Assay: flow cytometry, CHO cells stably expressing PD-L1
MEASURED_PARAMETER: MFI at 33.3 nM (MFI)

The cases that follow already have their MFI at 33.3 nM on record.
BINDER	MFI at 33.3 nM / MFI
variant CD80 IgV-Fc H18Y/V68M/A71G/D90G (Fc fusion) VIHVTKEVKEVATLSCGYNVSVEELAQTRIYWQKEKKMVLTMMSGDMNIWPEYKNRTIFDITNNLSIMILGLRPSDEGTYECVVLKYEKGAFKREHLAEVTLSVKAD	30700
CD80 E35D/M47V/N48K/V68M/K89N IgV-Fc, (EAAAK)3 linker (Fc fusion) VIHVTKEVKEVATLSCGHNVSVEELAQTRIYWQKDKKMVLTMMSGDVKIWPEYKNRTIFDITNNLSIMILALRPSDEGTYECVVLKYENDAFKREHLAEVTLSVKADEAAAKEAAAKEAAAK	24500
variant CD80 IgV-Fc A26E/M47L/A71G/D90G (Fc fusion) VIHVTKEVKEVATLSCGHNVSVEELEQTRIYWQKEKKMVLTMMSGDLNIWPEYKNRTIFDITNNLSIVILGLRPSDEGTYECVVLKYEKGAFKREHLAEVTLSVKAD	13200
variant CD80 IgV-Fc (inert) H18V/E35D/M47V/V68M/A71G/D90G (Fc fusion) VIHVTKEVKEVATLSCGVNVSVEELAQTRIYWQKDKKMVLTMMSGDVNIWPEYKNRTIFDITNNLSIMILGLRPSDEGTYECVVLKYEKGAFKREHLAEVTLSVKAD	43600
variant CD80 IgV-Fc H18Y/A26E/M47L/D90G (Fc fusion) VIHVTKEVKEVATLSCGYNVSVEELEQTRIYWQKEKKMVLTMMSGDLNIWPEYKNRTIFDITNNLSIVILALRPSDEGTYECVVLKYEKGAFKREHLAEVTLSVKAD	8930

I: variant CD80 IgV-Fc (inert) H18V/A26D/E35D/M47V/V68M/A71G/D90G (Fc fusion) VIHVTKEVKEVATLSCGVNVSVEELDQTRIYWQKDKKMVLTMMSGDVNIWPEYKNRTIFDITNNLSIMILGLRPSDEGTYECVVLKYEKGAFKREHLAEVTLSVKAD
II: variant CD80 IgV-Fc A26E/E35D/M47L/D90G (Fc fusion) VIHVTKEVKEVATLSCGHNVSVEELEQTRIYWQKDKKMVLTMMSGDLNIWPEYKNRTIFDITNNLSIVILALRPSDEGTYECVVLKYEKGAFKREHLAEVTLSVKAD
Query: Lower value for measured MFI at 33.3 nM? Options: I , II Return value: the label identifying the chosen record.
Result: II
(II: 9580 MFI, I: 67500 MFI)
